The measurements presented in this section are drawn from the supplement of paper PMC11451515.

// reported cell viability for each item listed
- Test system: P12-Ichikawa
- protocol.summary: cell viability relative to DMSO control; higher = less cytotoxic
- experimental.setup: HPLM + 10% dialyzed FBS; 48 h; 0.000781 µM
Field: numeric (%). Do not append units.

[[record]]
compound = "CN1C2=CC(=O)/C(=N/NC(N)=O)C=C2CC1S(=O)(=O)[O-].[Na+] (stereo not given)"
endpoint = "cell viability"
u = "%"
value_reported = 105


INPUT: Which value of cell viability has been reported for `CO[C@H]1/C=C/O[C@@]2(C)Oc3c(C)c(O)c4c(O)c(c(/C=N\N5CCN(C6CCCC6)CC5)c(O)c4c3C2=O)NC(=O)/C(C)=C\C=C\[C@H](C)[C@H](O)[C@@H](C)[C@@H](O)[C@@H](C)[C@H](OC(C)=O)[C@@H]1C` in the records?
OUTPUT: 112

INPUT: Same read-out for `C[C@H]1[C@H](O)O[C@@H]2O[C@@]3(C)CC[C@H]4[C@H](C)CC[C@@H]1[C@@]24OO3` ?
OUTPUT: 91.4

INPUT: // same read-out, input: `FC1=CC=C(CN2\C=C/C=C(/C(=O)N[C@@H](COC3=CC4=C(NC(=O)N4)C=C3)C5=CC=CC=C5)C2=O)C=C1F`
OUTPUT: 89.1

INPUT: Repeat for the following compound: `C/C(=C\c1csc(C)n1)[C@@H]1C[C@@H]2O[C@@H]2CCC[C@H](C)[C@H](O)[C@@H](C)C(=O)C(C)(C)[C@@H](O)CC(=O)O1`
OUTPUT: 37.2

* * *

- System: SEM cells
- protocol.summary: cell viability relative to DMSO control; higher = less cytotoxic
- experimental.setup: RPMI 5 mM glucose + 10% dialyzed FBS; 48 h; 0.000781 µM
Entries and their cell viability values follow.
Return type: number; implicit unit %.

// below: answered compounds
[[record]]
compound = "O=C1CCC[C@@H]2[C@H]3CCC[N+]4([O-])CCC[C@@H](CN12)[C@@H]34 (some centres undefined)"
tested_target = "SEM cells"
u = "%"
value_reported = 89.7

[[record]]
compound = "CC(C)(C)Cn1c(N)nc2ccc(-c3[nH]c(C(C)(C)C)nc3-c3ccc(F)cc3)nc21"
tested_target = "SEM cells"
u = "%"
value_reported = 102


INPUT: Item COc1nccc(-c2c(-c3ccc(F)cc3)ncn2C2CCC(O)CC2)n1 (centres undefined) has what recorded cell viability?
OUTPUT: 103

INPUT: Follow-up item: CN1C2=CC(=O)/C(=N/NC(N)=O)C=C2CC1S(=O)(=O)[O-].[Na+] (centres undefined)
OUTPUT: 95.5

* * *

Below is a list of entries, each paired with its recorded AUC of viability dose-response curve value.
- Test system: SEM cells
- protocol.summary: AUC of viability dose-response curve (% viability x log10 dose units); higher = less sensitive
- experimental.setup: RPMI 5 mM glucose + 10% FBS; 48 h
# respond with the number and nothing more

Worked cases, answers included:
[[record]]
structure_notation = "O=[S+]([O-])(CCSSCC[S+](=O)([O-])[O][Na])[O][Na]"
value_reported = 457

[[record]]
structure_notation = "NCCS(=O)(=O)O"
value_reported = 471


INPUT: Any idea what AUC of viability dose-response curve was measured for `CCN1\C=C(C(O)=O)/C(=O)C2=C1C=C(N3CCN(C)CC3)C(=C2)F` ?
OUTPUT: 458

INPUT: And then `Cc1cc(-c2nnc3n2CCCCC3)c(C)n1-c1ccccc1` , what is it?
OUTPUT: 424

INPUT: Please do the same for `CCc1ccc(C(=O)Nc2cc(CN3CCN(C)CC3)cc(C(F)(F)F)c2)cc1C#Cc1cnc2ccnn2c1` as well.
OUTPUT: 453
